Test system: WHIM30 (cells of a triple-negative basal-like breast cancer xenograft)
test-name: cell viability of combination (% of vehicle); higher = less cytotoxic
condition-summary: 1 µM; 72 h; partner dose: 10 nM
quantity-measured: cell viability of combination

[[record]]
molecule = "CCN(CC)CCCC(C)Nc1ccnc2cc(Cl)ccc12.O=P(O)(O)O.O=P(O)(O)O (centres undefined) [Chloroquine diphosphate] + CC(C)C[C@H](NC(=O)[C@H](CCc1ccccc1)NC(=O)CN1CCOCC1)C(=O)N[C@@H](Cc1ccccc1)C(=O)N[C@@H](CC(C)C)C(=O)[C@@]1(C)CO1"
experimental_target = "WHIM30"
quantity_measured = "cell viability of combination"
number = 13.5

[[record]]
molecule = "Br.Cc1ccc(Sc2ccccc2N2CCNCC2)c(C)c1 + CC(C)C[C@H](NC(=O)[C@H](CCc1ccccc1)NC(=O)CN1CCOCC1)C(=O)N[C@@H](Cc1ccccc1)C(=O)N[C@@H](CC(C)C)C(=O)[C@@]1(C)CO1"
experimental_target = "WHIM30"
quantity_measured = "cell viability of combination"
number = 15.7

[[record]]
molecule = "C=CC(=O)Nc1cc(Nc2nccc(-c3cn(C)c4ccccc34)n2)c(OC)cc1N(C)CCN(C)C + CC(C)C[C@H](NC(=O)[C@H](CCc1ccccc1)NC(=O)CN1CCOCC1)C(=O)N[C@@H](Cc1ccccc1)C(=O)N[C@@H](CC(C)C)C(=O)[C@@]1(C)CO1"
experimental_target = "WHIM30"
quantity_measured = "cell viability of combination"
number = 17.5

[[record]]
molecule = "CC(C)Nc1cc(-c2c[nH]c(C(=O)NC(CO)c3cccc(Cl)c3)c2)c(Cl)cn1 (centres undefined) + CC(C)C[C@H](NC(=O)[C@H](CCc1ccccc1)NC(=O)CN1CCOCC1)C(=O)N[C@@H](Cc1ccccc1)C(=O)N[C@@H](CC(C)C)C(=O)[C@@]1(C)CO1"
experimental_target = "WHIM30"
quantity_measured = "cell viability of combination"
number = 21.7


###

Entries and their cell viability values follow.
Test system: HCI13 (cells of an ER-positive luminal breast cancer xenograft)
test-name: cell viability (% of vehicle); higher = less cytotoxic
condition-summary: 10 µM; 72 h
quantity-measured: cell viability

[[record]]
compound = "CC(=CC(=O)OCCCCCCCCC(=O)O)CC1OCC(CC2OC2C(C)C(C)O)C(O)C1O (stereo not given)"
quantity_measured = "cell viability"
result = 89.6

[[record]]
compound = "COc1cc2ncnc(Nc3ccc(F)c(Cl)c3)c2cc1NC(=O)C=CCN1CCCCC1"
quantity_measured = "cell viability"
result = 24.6

[[record]]
compound = "CCOc1nc2cccc(C(=O)OCc3oc(=O)oc3C)c2n1Cc1ccc(-c2ccccc2-c2nc(=O)o[nH]2)cc1"
quantity_measured = "cell viability"
result = 106

[[record]]
compound = "O=C(O)Cc1cc(I)c(Oc2ccc(O)c(I)c2)c(I)c1"
quantity_measured = "cell viability"
result = 42.5

[[record]]
compound = "Cc1onc(-c2ccccc2Cl)c1C(=O)NC1C(=O)N2C1SC(C)(C)C2C(=O)[O-].O.[Na+] (stereo not given) [Cloxacillin Sodium]"
quantity_measured = "cell viability"
result = 191

[[record]]
compound = "Cl.NNc1nncc2ccccc12 [Hydralazine HCl]"
quantity_measured = "cell viability"
result = 121

[[record]]
compound = "CS(=O)(=O)O.Cc1c(O)cccc1C(=O)NC(CSc1ccccc1)C(O)CN1CC2CCCCC2CC1C(=O)NC(C)(C)C (stereo not given) [Nelfinavir Mesylate]"
quantity_measured = "cell viability"
result = 48.2

[[record]]
compound = "Cl.c1ccc(CC2=NCCN2)cc1 [Tolazoline HCl]"
quantity_measured = "cell viability"
result = 118

[[record]]
compound = "CCCSc1nc(NC2CC2c2ccc(F)c(F)c2)c2nnn(C3CC(OCCO)C(O)C3O)c2n1 (stereo not given)"
quantity_measured = "cell viability"
result = 46.1

[[record]]
compound = "CNC(=O)c1ccc(N2C(=S)N(c3ccc(C#N)c(C(F)(F)F)c3)C(=O)C2(C)C)cc1F [MDV3100 (Enzalutamide)]"
quantity_measured = "cell viability"
result = 94.3

[[record]]
compound = "CNC1CCC(c2ccc(Cl)c(Cl)c2)c2ccccc21.Cl (stereo not given) [Sertraline HCl]"
quantity_measured = "cell viability"
result = 118

[[record]]
compound = "Cc1ccnc2c1NC(=O)c1cccnc1N2C1CC1"
quantity_measured = "cell viability"
result = 96.5

[[record]]
compound = "CC(C)OC(=O)C(C(=O)OC(C)C)=C1SC=CS1 [Malotilate]"
quantity_measured = "cell viability"
result = 89.8

[[record]]
compound = "CO[C@H]1/C=C/O[C@@]2(C)Oc3c(C)c(O)c4c(c3C2=O)C(=O)/C(=C/NN2CCN(C)CC2)C(=C4O)NC(=O)/C(C)=C/C=C/[C@H](C)[C@H](O)[C@@H](C)[C@@H](O)[C@@H](C)[C@H](OC(C)=O)[C@@H]1C"
quantity_measured = "cell viability"
result = 108

[[record]]
compound = "CC(C)NCC(O)c1ccc(NS(C)(=O)=O)cc1.Cl (stereo not given)"
quantity_measured = "cell viability"
result = 103


###

cell viability reference
System: HCI11 (cells of an ER-positive luminal breast cancer xenograft)
test-name: cell viability (% of vehicle); higher = less cytotoxic
condition-summary: 10 µM; 72 h
quantity-measured: cell viability

[[record]]
molecule = "Cc1nccn1CC1CCc2c(c3ccccc3n2C)C1=O.Cl (stereo unspecified) [Ondansetron HCl]"
quantity_measured = "cell viability"
number = 111

[[record]]
molecule = "CCCCOc1cc(C(=O)NCCN(CC)CC)c2ccccc2n1.Cl [Dibucaine (Cinchocaine) HCl]"
quantity_measured = "cell viability"
number = 103

[[record]]
molecule = "CC12CCC(O)CC1=CCC1C2CCC2(C)C(c3cccnc3)=CCC12 (stereo unspecified)"
quantity_measured = "cell viability"
number = 76.6

[[record]]
molecule = "O=C(C=Cn1cnc(-c2cc(C(F)(F)F)cc(C(F)(F)F)c2)n1)NNc1cnccn1"
quantity_measured = "cell viability"
number = 92.7

[[record]]
molecule = "O=C(NC1CCN(CCCCC2(C(=O)NCC(F)(F)F)c3ccccc3-c3ccccc32)CC1)c1ccccc1-c1ccc(C(F)(F)F)cc1 [Lomitapide]"
quantity_measured = "cell viability"
number = 43.7

[[record]]
molecule = "COc1nc(C)cnc1NS(=O)(=O)c1cccnc1-c1ccc(-c2nnco2)cc1 [Zibotentan (ZD4054)]"
quantity_measured = "cell viability"
number = 117

[[record]]
molecule = "Cc1ccc(S(=O)(=O)NC(=O)NN2CC3CCCC3C2)cc1 (stereo unspecified) [Gliclazide]"
quantity_measured = "cell viability"
number = 90.2

[[record]]
molecule = "COc1cc(C2Oc3cc(C4Oc5cc(O)cc(O)c5C(=O)C4O)ccc3OC2CO)ccc1O (stereo unspecified)"
quantity_measured = "cell viability"
number = 89.4

[[record]]
molecule = "O=P(O)(O)C(O)(Cn1ccnc1)P(=O)(O)O"
quantity_measured = "cell viability"
number = 172

[[record]]
molecule = "CCCc1cc(C(N)=S)ccn1 [Protionamide]"
quantity_measured = "cell viability"
number = 89.2

[[record]]
molecule = "O=C(O)C=CC(=O)O.OCCOCCN1CCN(C2=Nc3ccccc3Sc3ccccc32)CC1.OCCOCCN1CCN(C2=Nc3ccccc3Sc3ccccc32)CC1 [Quetiapine Fumarate]"
quantity_measured = "cell viability"
number = 123

[[record]]
molecule = "COc1ccc2[nH]cc(CCNC(C)=O)c2c1"
quantity_measured = "cell viability"
number = 97.8

[[record]]
molecule = "CN(C)CCN(Cc1ccccc1)c1ccccn1.Cl [Tripelennamine HCl]"
quantity_measured = "cell viability"
number = 80.6

[[record]]
molecule = "O=C1C(CCC(O)c2ccc(F)cc2)C(c2ccc(O)cc2)N1c1ccc(F)cc1 (stereo unspecified)"
quantity_measured = "cell viability"
number = 92.5

[[record]]
molecule = "CC1=NS(=O)(=O)c2cc(Cl)ccc2N1 [Diazoxide]"
quantity_measured = "cell viability"
number = 98.1

[[record]]
molecule = "CN1C2=CC(=O)C(=NNC(N)=O)C=C2CC1S(=O)(=O)[O-].[Na+] (stereo unspecified) [Carbazochrome sodium sulfonate (AC-17)]"
quantity_measured = "cell viability"
number = 94.6


###

Tested on: HCI13
test-name: cell viability (% of vehicle); higher = less cytotoxic
condition-summary: 10 µM; 72 h
Consider the following compounds and their measured cell viability readings.
quantity-measured: cell viability

[[record]]
compound = "CN(C)CC=CC(=O)Nc1cc2c(Nc3ccc(F)c(Cl)c3)ncnc2cc1OC1CCOC1 (stereo unspecified) [Afatinib (BIBW2992)]"
quantity_measured = "cell viability"
number = 43.4

[[record]]
compound = "Cc1ccc(-c2ncc(Cl)cc2-c2ccc(S(C)(=O)=O)cc2)cn1 [Etoricoxib]"
quantity_measured = "cell viability"
number = 96.7

[[record]]
compound = "NS(=O)(=O)c1cc2c(cc1Cl)NC(C(Cl)Cl)NS2(=O)=O (stereo unspecified) [Trichlormethiazide]"
quantity_measured = "cell viability"
number = 129

[[record]]
compound = "COc1cc(C2c3cc4c(cc3C(OC3OC5COC(C)OC5C(O)C3O)C3COC(=O)C23)OCO4)cc(OC)c1O (stereo unspecified) [Etoposide]"
quantity_measured = "cell viability"
number = 84

[[record]]
compound = "CC[C@H](C)[C@H]1O[C@]2(CC[C@@H]1C)C[C@@H]1C[C@@H](C/C=C(\\C)[C@@H](O[C@H]3C[C@H](OC)[C@@H](O[C@H]4C[C@H](OC)[C@@H](O)[C@H](C)O4)[C@H](C)O3)[C@@H](C)/C=C/C=C3\\CO[C@@H]4[C@H](O)C(C)=C[C@@H](C(=O)O1)[C@]34O)O2 [Ivermectin]"
quantity_measured = "cell viability"
number = 37.6

[[record]]
compound = "COc1cc(C=CC(=O)N2CCN(CC(=O)N3CCCC3)CC2)cc(OC)c1OC.O=C(O)C=CC(=O)O [Cinepazide maleate]"
quantity_measured = "cell viability"
number = 81.9

